// provenance: patent US20200360352A1

MIC values by entry
# Test system: Mycobacterium intracellulare
# ASSAY_OVERVIEW: MIC, micro broth dilution with resazurin readout
# Type: cell-based
# PARTICULARS: MH Culture Medium, clinically isolated strain Intracellulare (ZPS), read-out: Minimum Inhibitory Concentration (MIC)
Answer format: numeric, µg/mL implied, no suffix.

Exercise: Lab note: need MIC with Mycobacterium intracellulare for entry CO[C@H]1/C=C/O[C@@]2(C)Oc3c(C)c(O)c4c(O)c(c(/C=N/N5CCN(C)CC5)c(O)c4c3C2=O)NC(=O)/C(C)=C\C=C\[C@H](C)[C@H](O)[C@@H](C)[C@@H](O)[C@@H](C)[C@H](OC(C)=O)[C@@H]1C , please look it up.
Key: 2

Exercise: Lab note: need MIC with Mycobacterium intracellulare for entry Cc1ncc([N+](=O)[O-])n1CCO , please look it up.
Key: 8

Exercise: Lab note: need MIC with Mycobacterium intracellulare for entry CO[C@H]1/C=C/O[C@@]2(C)Oc3c(C)c(O)c4c(c3C2=O)C2=NC3(CCN(CC(C)C)CC3)NC2=C(NC(=O)/C(C)=C\C=C\[C@H](C)[C@H](O)[C@@H](C)[C@@H](O)[C@@H](C)[C@H](OC(C)=O)[C@@H]1C)C4=O , please look it up.
Key: 0.0625

Exercise: Lab note: need MIC with Mycobacterium intracellulare for entry CC[C@H]1OC(=O)[C@H](C)[C@@H](O[C@H]2C[C@@](C)(OC)[C@@H](O)[C@H](C)O2)[C@H](C)[C@@H](O[C@@H]2O[C@H](C)C[C@H](N(C)C)[C@H]2O)[C@](C)(OC)C[C@@H](C)C(=O)[C@H](C)[C@@H](O)[C@]1(C)O , please look it up.
Key: 1

Exercise: Lab note: need MIC with Mycobacterium intracellulare for entry CO[C@H]1/C=C/O[C@@]2(C)Oc3c(C)c(O)c4c(c3C2=O)C2=NC3(CCN(CCn5c([N+](=O)[O-])cnc5C)CC3)NC2=C(NC(=O)/C(C)=C\C=C\[C@H](C)[C@H](O)[C@@H](C)[C@@H](O)[C@@H](C)[C@H](OC(C)=O)[C@@H]1C)C4=O , please look it up.
Key: 0.0625

Exercise: Lab note: need MIC with Mycobacterium intracellulare for entry COc1c(N2C[C@@H]3CCCN[C@@H]3C2)c(F)cc2c(=O)c(C(=O)O)cn(C3CC3)c12 , please look it up.
Key: 1
